B1: Tryptophan synthase alpha chain, P0A877 (parent)
chain: MERYESLFAQLKERKEGAFVPFVTLGDPGIEQSLKIIDTLIEAGADALELGIPFSDPLADGPTIQNATLRAFAAGVTPAQCFEMLALIRQKHPTIPIGLLMYANLVFNKGIDEFYAQCEKVGVDSVLVADVPVEESAPFRQAALRHNVAPIFICPPNADDDLLRQIASYGRGYTYLLSRAGVTGAENRAALPLNHLVAKLKEYNAAPPLQGFGISAPDQVKAAIDAGAAGAISGSAIVKIIEQHINEPEKMLAALKVFVQPMKAATRS

variants of: B1; conditions: Escherichia coli (strain K12); pH 9; 54.1 °C; Thermal; DSC; Sodium tetraborate 1 mM; EDTA 1 mM; reversible: yes; structure 1WQ5; whole UniProt chain shown
Examples of variants with documented ddG of mutation (higher = less stable) follow.
The answer is to be given in kcal/mol; state only the numeric part.

Example entries and their recorded answers appear below.
In [3]: df
Out[3]:
   changes  measured_number
0     P62A             0.52
1     P57A             0.04

Query :: Sample `P96A` — what was its ddG of mutation (higher = less stable)?
Result :: 2

Query :: Sample `P132A` — what was its ddG of mutation (higher = less stable)?
Result :: 0.92

Query :: Sample `P132G` — what was its ddG of mutation (higher = less stable)?
Result :: 0.78
